Each recorded value in this set is attributed to PubChem BioAssay (NCI).

Can you tell me growth inhibition for the items I'm about to list?
- Protocol summary: NCI Yeast Anticancer Drug Screen. Data for the cln2 rad14 strain (AID 165);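 further: 0% = growth equal to vehicle treated cultures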
- Test parameters: S. cerevisiae cln2 rad14 strain, at 50.0 µM, hits give high values
About 79,000 compounds went through this panel and 15% of them were active in at least one assay; those are over-represented in the sample as a whole.
Give bare numbers, in %.

For each entry beneath this line, provide reported growth inhibition.
1. N#Cc1[nH]cnc1O
2. O=C(Nc1ccc([N+](=O)[O-])c2c1C(=O)c1ccccc1C2=O)c1ccccc1
3. Brc1c(-c2ccccc2)oc2nc3ccccc3nc12
4. Cc1ccc(-n2cnc3c(N/N=C4\SCC(=O)N4c4ccccc4)ncnc32)cc1
5. Cc1ccc(S(=O)(=O)Nc2ccccc2C(=O)c2ccc(C)c(C)c2)cc1

Outgoing:
7.7
-43.4
7.45
15.1
-41

Incoming: Tell me measured growth inhibition for COC1=NC2(C)C(C)=C(c3ccccc3)C1(C)c1ccccc12 (stereo unspecified) please.
Outgoing: -46.8

====

- Protocol summary: NCI Yeast Anticancer Drug Screen. Data for the cln2 rad14 strain (AID 165);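 further: 0% = growth equal to vehicle treated cultures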
- Test parameters: S. cerevisiae cln2 rad14 strain, at 50.0 µM, hits give high values
The panel holds about 79,000 compounds, 15% with a hit somewhere; the sample as a whole holds those more often.
Can you tell me growth inhibition for the items I'm about to list?
Answers are plain numbers, in %.

Sample answers from the record:
OC12CCCCCC1(N1CCOCC1)c1ccccc12 (configuration not stated)
-21.1
COc1cc2c3cc1Oc1c(O)c(OC)cc4c1C(Cc1ccc(O)c(c1)Oc1ccc(cc1)CC3N(C)CC2)N(C)CC4 (configuration not stated)
-5.4

For each entry beneath this line, provide reported growth inhibition.
1. Cc1ccccc1/C=C/C(=O)c1ccccc1
2. COc1ccc(OC)c(NC(=O)SC(C)C)c1
3. COC(=O)C1Cc2cc3c(cc2C1=O)CCC3 (configuration not stated)

Outgoing:
1. 1.8
2. 0.15
3. 6.75

====

- Protocol summary: NCI Yeast Anticancer Drug Screen. Data for the sgs1 mgt1 strain (AID 161);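 further: 0% = growth of cultures given vehicle only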
- Test parameters: S. cerevisiae sgs1 mgt1 strain, at 50.0 µM, hits give high values
About 79,000 compounds went through this panel and 15% of them were active in at least one assay; those are over-represented in the sample as a whole.
Value kind: growth inhibition (%)
Numbers only, in %.

Sample answers from the record:
CCOC(=O)NC(Nc1cccc(C(F)(F)F)c1)(C(F)(F)F)C(F)(F)F
-38.5
CC(=O)NC(Cc1ccc(C)cc1)C(=O)O (stereo not given)
20.1
O=C(C[N+]1(c2ccccc2)CCOCC1)c1ccccc1
-13.8

For each entry beneath this line, provide reported growth inhibition.
1. O=c1c2ccccc2[nH]c2c(O)ccc(O)c12
2. COc1cc(OC)c(C2c3cc4c(cc3OC(N3CCCC3)C2C)OCO4)c(OC)c1 (stereo not given)

Outgoing:
[6.55, 2.45]

====

- Protocol summary: NCI Yeast Anticancer Drug Screen. Data for the bub3 strain (AID 167)
- Test parameters: S. cerevisiae bub3 mutant strain, at 50.0 µM, hits give high values
This is part of a sample that, as a whole, favours compounds with a hit. Of some 79,000 tested, about 15% had one in any assay.
Value kind: growth inhibition (%)
Answers are plain numbers, in %.

Sample answers from the record:
CN(Cc1cnc2nc(N)nc(N)c2n1)c1ccc(C(=O)NC(CCC(=O)NC(CCC(=O)O)C(=O)O)C(=O)O)cc1 (stereo unspecified)
33.5
CC(=O)OC1OC(C)C(OC(=O)c2ccccc2)C1OC(C)=O (stereo unspecified)
6.25
OCCCc1nc2ccccc2[nH]1
-17.7
c1ccc(Cn2ccnc2CSCCSCc2nccn2Cc2ccccc2)cc1
-0.65
N#Cc1nc[nH]c1C(N)=O
11

Alright, here's another compound for you.
Incoming: Tell me measured growth inhibition for Nc1ccc2ccccc2c1Cl please.
Outgoing: -44.4

====

Can you tell me growth inhibition for the items I'm about to list?
- Protocol summary: NCI Yeast Anticancer Drug Screen. Data for the sgs1 mgt1 strain (AID 161);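 further: 0% = growth of cultures given vehicle only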
- Test parameters: S. cerevisiae sgs1 mgt1 strain, at 50.0 µM, hits give high values
The panel holds about 79,000 compounds, 15% with a hit somewhere; the sample as a whole holds those more often.
One number for each entry, in %.

Sample answers from the record:
CNc1ccc2c(c1)C(=O)c1ccccc1-2
-5.55
N=c1c(C(=O)O)cccn1O
9.1

Alright, here's another compound for you.
Incoming: Tell me measured growth inhibition for OCC1C=Cc2ccccc21 (stereo not drawn) please.
Outgoing: -0.6

====

Can you tell me growth inhibition for the items I'm about to list?
- Protocol summary: NCI Yeast Anticancer Drug Screen. Data for the bub3 strain (AID 167)
- Test parameters: S. cerevisiae bub3 mutant strain, at 50.0 µM, hits give high values
This is part of a sample that, as a whole, favours compounds with a hit. Of some 79,000 tested, about 15% had one in any assay.
Give bare numbers, in %.

N#CCCNc1ccc2c(c1)Cc1ccccc1-2
12.4

For each entry beneath this line, provide reported growth inhibition.
1. O/N=C1/COC(C(F)(F)F)(C(F)(F)F)C1
2. O=C(Cl)c1ccc2c(c1)C(=O)NC2=O
3. O=C1N/C(=N\OCCc2ccccc2)CC(NOCCc2ccccc2)N1 (stereo not given)
4. Clc1ccc(-c2nnc(-c3ccc(Cl)c(Cl)c3)o2)cc1Cl
5. Nc1c(S(=O)(=O)O)cc(Nc2cccc(S(=O)(=O)/C=C/S(=O)(=O)O)c2)c2c1C(=O)c1ccccc1C2=O
6. COc1cc(Nc2nc3ccc(C(F)(F)F)cc3nc2-c2ccccc2)cc(OC)c1OC
7. Cc1nc(C)c(C(=O)NNC(N)=S)cc1C(=O)NNC(N)=S

Outgoing:
1. -5.7
2. -5.95
3. 40.5
4. -10.9
5. 0.85
6. -9.3
7. -27.6

For each entry beneath this line, provide reported growth inhibition.
1. O=c1[nH]nc(-c2ccccc2)n1-n1cccc1
2. CCC(CO)(CO)[N+](=O)[O-]

Outgoing:
1. -12.3
2. 16.8

====

Can you tell me growth inhibition for the items I'm about to list?
- Protocol summary: NCI Yeast Anticancer Drug Screen. Data for the sgs1 mgt1 strain (AID 161);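 further: 0% = growth of cultures given vehicle only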
- Test parameters: S. cerevisiae sgs1 mgt1 strain, at 50.0 µM, hits give high values
The panel holds about 79,000 compounds, 15% with a hit somewhere; the sample as a whole holds those more often.
One number for each entry, in %.

CCC1OC(=O)CC(O)C(C)C(OC2OC(C)C(O)C(N(C)C)C2O)C(CC=O)CC(C)C(=O)/C=C/C2(C)OC2C1C (stereo not drawn)
-23.5

For each entry beneath this line, provide reported growth inhibition.
1. CC1CCCC/C1=N\N(C)C (stereo not drawn)
2. CC1(C)c2ccccc2C(=O)c2ccccc21
3. COc1ccc(/C=N/NS(=O)(=O)c2ccc(/C=C3\NC(=O)N(C)C3=O)cc2)cc1

Outgoing:
-12.8
2.6
-21.9

====

- Protocol summary: NCI Yeast Anticancer Drug Screen. Data for the mec2-1 strain (AID 157)
- Test parameters: S. cerevisiae mec2-1 strain, at 50.0 µM, hits give high values
About 79,000 compounds went through this panel and 15% of them were active in at least one assay; those are over-represented in the sample as a whole.
Can you tell me growth inhibition for the items I'm about to list?
Answers are plain numbers, in %.

Sample answers from the record:
CCC(C#N)(C(=O)OC)/C(C)=C/C(C)C (stereo not drawn)
-13.2
CCS(=O)CCC(N)C(=O)O (stereo not drawn)
-20.1
CSc1cc(/C=C/c2ccccc2)ccc1N
1.5
CCCCCCCCOC(=O)Nc1cccc2ccccc12
-11.2
COC(=O)C1=C(O)c2cc(-c3ccccc3)c(-c3ccccc3)c(C#N)c2NC(=O)C1
23.9

For each entry beneath this line, provide reported growth inhibition.
1. CN(C=O)C1CCC2C3CC=C4CC(OC=O)CCC4(C)C3CCC21C (stereo not drawn)
2. Cc1ccc(S(=O)(=O)N(CCO)CCCO)cc1
3. C#CC(C)(CC)OC(C)=O (stereo not drawn)
4. CC(=O)/C(=C\c1ccc(/C=C(\C(C)=O)C(=O)CCN(C)C)cc1)C(=O)CCN(C)C
5. CN(CCN(C)C(=O)CCn1cc(F)c(=O)[nH]c1=O)C(=O)CCn1cc(F)c(=O)[nH]c1=O

Outgoing:
1: 11.3; 2: -43.3; 3: -16.4; 4: 58.5; 5: 18.2

For each entry beneath this line, provide reported growth inhibition.
1. NC1CC(=O)c2sccc21 (stereo not drawn)
2. O=C(c1ccc(Cl)cc1)c1ccc2ccccc2c1
3. COc1ccc(CNc2cnc3cc(N)ccc3n2)cc1OC
4. OC12CCCCCC1(N1CCOCC1)c1ccccc12 (stereo not drawn)
5. NC(=S)N/N=C/c1ccc2c(c1)OCO2
6. Cc1cccc(NC(=O)Nc2ccccc2Cl)c1C
7. CCCCOC(=S)Nc1ccc(S(=O)(=O)c2ccc(NC(=S)OCCCC)cc2)cc1

Outgoing:
2.15
-8.6
-34.5
-11.7
25.8
5.15
0.15

For each entry beneath this line, provide reported growth inhibition.
1. CCCCCc1ccccc1OCC1CO1 (stereo not drawn)
2. COC(=O)/C=C(/C(=O)OC)c1c(C)c(C)c2c(C)cc(C)cc(C)c1-2
3. CCOc1ccc(C(=O)CCC(=O)Nc2ccc(Br)cc2)cc1
4. Clc1ccc(N2C(c3ccccc3)=N[C@@H](N3CCOCC3)[C@@H]2N2CCOCC2)cc1

Outgoing:
1: -9.15; 2: 14.4; 3: 5.8; 4: -15.9

For each entry beneath this line, provide reported growth inhibition.
1. OCC(Cl)(Cl)C(Cl)(Cl)CO
2. CCC/C(Cl)=N\OC(=O)Nc1ccc(OC(F)(F)F)cc1

Outgoing:
[-14.5, 24.8]
